- Method notes: The compound was tested to antagonize the CCK-8 induced amylase secretion from pancreatic acini
- Assay type: functional

| Smiles text | Unit label | IC50 |
| --- | --- | --- |
| Cc1ccccc1NC(=O)NCCCC[C@@H](CC(=O)O)NC(=O)[C@H]1Cc2c([nH]c3ccccc23)[C@@H]2C[C@@H](NC(=O)OCc3ccccc3)C(=O)N12 | nM | 196 |

---

- Target: Gastrin/cholecystokinin type B receptor (Rattus norvegicus)
- Sequence (P30553 whole entry): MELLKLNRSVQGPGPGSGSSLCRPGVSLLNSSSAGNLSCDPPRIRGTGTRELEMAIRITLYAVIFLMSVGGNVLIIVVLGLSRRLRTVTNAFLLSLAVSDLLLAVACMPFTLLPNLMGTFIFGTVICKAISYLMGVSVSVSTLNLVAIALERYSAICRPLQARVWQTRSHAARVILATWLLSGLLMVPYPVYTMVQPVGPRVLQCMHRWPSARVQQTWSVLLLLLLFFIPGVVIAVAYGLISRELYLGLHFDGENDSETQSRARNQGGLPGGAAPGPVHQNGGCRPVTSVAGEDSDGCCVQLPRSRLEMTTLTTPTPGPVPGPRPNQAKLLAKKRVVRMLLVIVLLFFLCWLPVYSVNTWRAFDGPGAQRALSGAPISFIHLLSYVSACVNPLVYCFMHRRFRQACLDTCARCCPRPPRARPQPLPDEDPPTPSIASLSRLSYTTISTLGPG
- Method notes: Inhibition of [3H]propionyl-CCK-8 specific binding to rat cerebral cortex membranes Cholecystokinin type B receptor
Reported IC50 values follow for various compounds

| Compound | Qualifier sign | IC50, µM |
| --- | --- | --- |
| Cc1ccccc1NC(=O)NCCCC[C@@H](CC(=O)O)NC(=O)[C@@](C)(Cc1c[nH]c2ccccc12)NC(=O)OC1C2CC3CC(C2)CC1C3 (some centres undefined) | = | 0.0067 |
| O=C(N[C@H]1C[C@@H]2c3[nH]c4ccccc4c3C[C@@H](C(=O)N[C@@H](Cc3ccccc3)C(=O)O)N2C1=O)OCc1ccccc1 | > | 10 |
| Cc1ccccc1NC(=O)NCCCC[C@@H](CC(=O)O)NC(=O)[C@H]1Cc2c([nH]c3ccccc23)[C@@H]2C[C@@H](NC(=O)OCc3ccccc3)C(=O)N12 | = | 5.8 |
| Cc1ccccc1NC(=O)NCCCC[C@@H](CC(=O)O)NC(=O)[C@@H]1Cc2c([nH]c3ccccc23)[C@H]2C[C@H](NC(=O)OCc3ccccc3)C(=O)N21 | > | 10 |
